Where do these numbers come from? They come from the RepoRT retention time repository (doi:10.1021/ac300829f).

assay: RP, Thermo Scientific Hypersil GOLD, 150 × 2.1 mm, 1.9 µm, 0.5 mL/min, estimated dead time 0.66 min; A: water + 0.1% formic acid, pH 3; B: acetonitrile + 0.1% formic acid, pH 3; gradient (min/%B) 0/0 2/0 13/100 15.5/100 19/0; conditions: stereoisomer not certain
observed-property: LC retention time (min)

Field: example entries. Status: answers known.
NCc1[nH]cc(CCC(=O)O)c1CC(=O)O [porphobilinogen] | 4.7
O=CCC(O)C(O)CO (configuration not stated) [deoxyribose] | 0.9
CC(C)C(=O)NCC(=O)O [N-isobutyrylglycine] | 4.1
CC(=O)Nc1ccc(OC2OC(C(=O)O)C(O)C(O)C2O)cc1 (configuration not stated) [acetaminophene glucuronide] | 4.2
CCCCCC(=O)OC(CC(=O)[O-])C[N+](C)(C)C (configuration not stated) [hexanoylcarnitine] | 6.6

[I] O=C(O)C1CCCN1 (configuration not stated) [proline]
[II] O=C(O)CNC(=O)c1ccccc1 [hippuric acid]
Which value of LC retention time is numerically greater: that of I or that of II ? Return value: the label identifying the chosen record. II
(II: 5.8 min, I: 1.1 min)

====

test: RP, Thermo Scientific Hypersil GOLD, 150 × 2.1 mm, 1.9 µm, 0.5 mL/min, estimated dead time 0.66 min; A: water + 0.1% formic acid, pH 3; B: acetonitrile + 0.1% formic acid, pH 3; gradient (min/%B) 0/0 2/0 13/100 15.5/100 19/0; details: stereoisomer not certain
observed-property: LC retention time (min)

// below: answered compounds
C[N+](C)(C)CC(CC(=O)[O-])OC(=O)CCCCC(=O)O (configuration not stated) | 5.3
O=C(C=Cc1ccc(O)c(O)c1)OC1CC(O)(C(=O)O)CC(O)C1O (configuration not stated) | 5.5
O=C(O)CCCCCCCCC(=O)O | 7.6
CCCCCC=CCC=CCCCCCCCC(=O)OCC(O)COP(=O)([O-])OCC[N+](C)(C)C (configuration not stated) | 11.2
O=C(O)CNC(=O)c1ccccc1O [o-hydroxyhippuric acid] | 6.5

[P] OCC1NCC(O)C(O)C1OC1OC(CO)C(O)C(O)C1O (configuration not stated)
[Q] O=c1[nH]cnc2nc[nH]c12
[R] CCOC(=O)c1ccccc1C(=O)O [monoethyl phthalate]
List the 3 entries from lowest LC retention time to highest LC retention time value. Hello, could you send the labels back in the order asked? Thank you. Q, P, R

[1] OCC1OC(O)C(O)C(O)C1O (configuration not stated) [hexose]
[2] CC(C)(O)CC(=O)O [3-hydroxy-3-methylbutyric acid (3-hydroxyisovaleric acid)]
[3] CC(C)(CCC(=O)O)C(=O)O
List from greatest to least LC retention time. Kindly provide the labels arranged according to the requested ordering. 3, 2, 1
(3: 6 min, 2: 4.2 min, 1: 0.9 min)

[A] OCc1cccc(O)c1 [3-hydroxybenzyl alcohol]
[B] CSCCC(N)C(=O)O (configuration not stated)
Which one would you say has the larger LC retention time value: A , or B ? Pick one and reply with its label. A

====

experiment: RP, Thermo Scientific Hypersil GOLD, 150 × 2.1 mm, 1.9 µm, 0.5 mL/min, estimated dead time 0.66 min; A: water + 0.1% formic acid, pH 3; B: acetonitrile + 0.1% formic acid, pH 3; gradient (min/%B) 0/0 2/0 13/100 15.5/100 19/0; details: stereoisomer not certain
observed-property: LC retention time (min)

CC(=O)Nc1ccc(O)cc1 | 4.9

[I] NC(Cc1cnc[nH]1)C(=O)O (configuration not stated)
[II] O=c1[nH]c(=O)c2ncn(C3OC(CO)C(O)C3O)c2[nH]1 (configuration not stated)
Min LC retention time? I | II Your choice should be expressed through its label. I
